These entries and their values trace back to patent US9976134B2.

PROTOCOL TEXT: Stability assay in 25% TIDE 2X detergent with DTPA (residual Abz-AGLA-Nba protease activity)
Format: physicochemical
EXPERIMENTAL PARAMETERS: 60 min at 32°C; variant residual AGLA activity divided by wild-type residual activity
Please respond with reported PI (relative stability), 25% TIDE 2X with DTPA for every item in the list.
Form rule: numeric answer, no unit written next to it.

Value of PI (relative stability), 25% TIDE 2X with DTPA reported for the molecule T049D: single-substitution thermolysin variant (SEQ ID NO:3 numbering) (protein, listed as Geobacillus caldoproteolyticus) ITGTSTVGVGRGVLGDQKNINTTYSTYYYLQDNTRGNGIFTYDAKYRTDLPGSLWADADNQFFASYDAPAVDAHYYAGVTYDYYKNVHNRLSYDGNNAAIRSSVHYSQGYNNAFWNGSQMVYGDGDGQTFIPLSGGIDVVAHELTHAVTDYTAGLIYQNESGAINEAISDIFGTLVEFYANKNPDWEIGEDVYTPGISGDSLRSMSDPAKYGDPDHYSKRYTGTQDNGGVHINSGIINKAAYLISQGGTHYGVSVVGIGRDKLGKIFYRALTQYLTPTSNFSQLRAAAVQSATDLYGSTSQEVASVKQAFDAVGVK is 1.05

Value of PI (relative stability), 25% TIDE 2X with DTPA reported for the molecule Y151H: single-substitution thermolysin variant (SEQ ID NO:3 numbering) (protein, listed as Geobacillus caldoproteolyticus) ITGTSTVGVGRGVLGDQKNINTTYSTYYYLQDNTRGNGIFTYDAKYRTTLPGSLWADADNQFFASYDAPAVDAHYYAGVTYDYYKNVHNRLSYDGNNAAIRSSVHYSQGYNNAFWNGSQMVYGDGDGQTFIPLSGGIDVVAHELTHAVTDHTAGLIYQNESGAINEAISDIFGTLVEFYANKNPDWEIGEDVYTPGISGDSLRSMSDPAKYGDPDHYSKRYTGTQDNGGVHINSGIINKAAYLISQGGTHYGVSVVGIGRDKLGKIFYRALTQYLTPTSNFSQLRAAAVQSATDLYGSTSQEVASVKQAFDAVGVK is 1.11

Value of PI (relative stability), 25% TIDE 2X with DTPA reported for the molecule Y151T: single-substitution thermolysin variant (SEQ ID NO:3 numbering) (protein, listed as Geobacillus caldoproteolyticus) ITGTSTVGVGRGVLGDQKNINTTYSTYYYLQDNTRGNGIFTYDAKYRTTLPGSLWADADNQFFASYDAPAVDAHYYAGVTYDYYKNVHNRLSYDGNNAAIRSSVHYSQGYNNAFWNGSQMVYGDGDGQTFIPLSGGIDVVAHELTHAVTDTTAGLIYQNESGAINEAISDIFGTLVEFYANKNPDWEIGEDVYTPGISGDSLRSMSDPAKYGDPDHYSKRYTGTQDNGGVHINSGIINKAAYLISQGGTHYGVSVVGIGRDKLGKIFYRALTQYLTPTSNFSQLRAAAVQSATDLYGSTSQEVASVKQAFDAVGVK is 1.18

Value of PI (relative stability), 25% TIDE 2X with DTPA reported for the molecule I156E: single-substitution thermolysin variant (SEQ ID NO:3 numbering) (protein, listed as Geobacillus caldoproteolyticus) ITGTSTVGVGRGVLGDQKNINTTYSTYYYLQDNTRGNGIFTYDAKYRTTLPGSLWADADNQFFASYDAPAVDAHYYAGVTYDYYKNVHNRLSYDGNNAAIRSSVHYSQGYNNAFWNGSQMVYGDGDGQTFIPLSGGIDVVAHELTHAVTDYTAGLEYQNESGAINEAISDIFGTLVEFYANKNPDWEIGEDVYTPGISGDSLRSMSDPAKYGDPDHYSKRYTGTQDNGGVHINSGIINKAAYLISQGGTHYGVSVVGIGRDKLGKIFYRALTQYLTPTSNFSQLRAAAVQSATDLYGSTSQEVASVKQAFDAVGVK is 1.58

Value of PI (relative stability), 25% TIDE 2X with DTPA reported for the molecule T006A: single-substitution thermolysin variant (SEQ ID NO:3 numbering) (protein, listed as Geobacillus caldoproteolyticus) ITGTSAVGVGRGVLGDQKNINTTYSTYYYLQDNTRGNGIFTYDAKYRTTLPGSLWADADNQFFASYDAPAVDAHYYAGVTYDYYKNVHNRLSYDGNNAAIRSSVHYSQGYNNAFWNGSQMVYGDGDGQTFIPLSGGIDVVAHELTHAVTDYTAGLIYQNESGAINEAISDIFGTLVEFYANKNPDWEIGEDVYTPGISGDSLRSMSDPAKYGDPDHYSKRYTGTQDNGGVHINSGIINKAAYLISQGGTHYGVSVVGIGRDKLGKIFYRALTQYLTPTSNFSQLRAAAVQSATDLYGSTSQEVASVKQAFDAVGVK is 1.01

Value of PI (relative stability), 25% TIDE 2X with DTPA reported for the molecule T049M: single-substitution thermolysin variant (SEQ ID NO:3 numbering) (protein, listed as Geobacillus caldoproteolyticus) ITGTSTVGVGRGVLGDQKNINTTYSTYYYLQDNTRGNGIFTYDAKYRTMLPGSLWADADNQFFASYDAPAVDAHYYAGVTYDYYKNVHNRLSYDGNNAAIRSSVHYSQGYNNAFWNGSQMVYGDGDGQTFIPLSGGIDVVAHELTHAVTDYTAGLIYQNESGAINEAISDIFGTLVEFYANKNPDWEIGEDVYTPGISGDSLRSMSDPAKYGDPDHYSKRYTGTQDNGGVHINSGIINKAAYLISQGGTHYGVSVVGIGRDKLGKIFYRALTQYLTPTSNFSQLRAAAVQSATDLYGSTSQEVASVKQAFDAVGVK is 1.02

Value of PI (relative stability), 25% TIDE 2X with DTPA reported for the molecule Q273W: single-substitution thermolysin variant (SEQ ID NO:3 numbering) (protein, listed as Geobacillus caldoproteolyticus) ITGTSTVGVGRGVLGDQKNINTTYSTYYYLQDNTRGNGIFTYDAKYRTTLPGSLWADADNQFFASYDAPAVDAHYYAGVTYDYYKNVHNRLSYDGNNAAIRSSVHYSQGYNNAFWNGSQMVYGDGDGQTFIPLSGGIDVVAHELTHAVTDYTAGLIYQNESGAINEAISDIFGTLVEFYANKNPDWEIGEDVYTPGISGDSLRSMSDPAKYGDPDHYSKRYTGTQDNGGVHINSGIINKAAYLISQGGTHYGVSVVGIGRDKLGKIFYRALTWYLTPTSNFSQLRAAAVQSATDLYGSTSQEVASVKQAFDAVGVK is 1.05

Value of PI (relative stability), 25% TIDE 2X with DTPA reported for the molecule A056Y: single-substitution thermolysin variant (SEQ ID NO:3 numbering) (protein, listed as Geobacillus caldoproteolyticus) ITGTSTVGVGRGVLGDQKNINTTYSTYYYLQDNTRGNGIFTYDAKYRTTLPGSLWYDADNQFFASYDAPAVDAHYYAGVTYDYYKNVHNRLSYDGNNAAIRSSVHYSQGYNNAFWNGSQMVYGDGDGQTFIPLSGGIDVVAHELTHAVTDYTAGLIYQNESGAINEAISDIFGTLVEFYANKNPDWEIGEDVYTPGISGDSLRSMSDPAKYGDPDHYSKRYTGTQDNGGVHINSGIINKAAYLISQGGTHYGVSVVGIGRDKLGKIFYRALTQYLTPTSNFSQLRAAAVQSATDLYGSTSQEVASVKQAFDAVGVK is 1.05
